- targetOrTestSystem: M2 muscarinic receptor (Homo sapiens)
- Sequence (P08172 whole entry): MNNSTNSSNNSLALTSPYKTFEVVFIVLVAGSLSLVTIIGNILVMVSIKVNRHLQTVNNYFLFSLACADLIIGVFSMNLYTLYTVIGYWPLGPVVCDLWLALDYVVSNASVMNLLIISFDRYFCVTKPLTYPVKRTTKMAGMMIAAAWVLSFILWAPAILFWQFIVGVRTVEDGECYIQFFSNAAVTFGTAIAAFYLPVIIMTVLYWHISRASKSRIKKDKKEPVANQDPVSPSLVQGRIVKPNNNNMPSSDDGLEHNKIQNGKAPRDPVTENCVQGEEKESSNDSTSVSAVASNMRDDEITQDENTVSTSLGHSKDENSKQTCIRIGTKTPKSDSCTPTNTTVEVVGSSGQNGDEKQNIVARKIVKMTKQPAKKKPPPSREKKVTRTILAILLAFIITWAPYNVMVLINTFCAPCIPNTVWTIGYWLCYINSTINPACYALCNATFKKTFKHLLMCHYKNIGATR
- protocol: Functional mobilization of intracellular calcium (FLIPR) in CHO cells expressing M2
- conditionDescription: CHO cells expressing M2, FLIPR calcium
Field: EC50. Provide a value for each of the compounds that follow.

Respectfully, I request EC50 for each entry included below.
1. C[C@H](C(=O)N[C@H]1CCC2(CCN(CCC(C)(C)C)CC2)c2ccccc21)N1CCCCC1=O [compound 38]
2. CC(=O)NC(C(=O)N[C@@H]1CCC2(CCN(CCC(C)(C)C)CC2)c2ccccc21)C(C)C (stereo partly shown) [compound 87]
3. C=CCCCN1CCC2(CC[C@H](NC(C)=O)c3ccccc32)CC1 [compound 172]
4. CC(C)(C)CCN1CCC2(CC[C@H](NC(=O)C3CCC(=O)N3)c3ccc(F)cc32)CC1 (stereo partly shown) [compound 103]
5. CC(C)(C)CCN1CCC2(CC[C@@H](NC(=O)CN3CCCCCC3=O)c3ccccc32)CC1 [compound 169]
6. CCN(C(=O)COC)[C@H]1CCC2(CCN(CCC(C)(C)C)CC2)c2ccccc21 [compound 181]

Reply:
1. > 5 µM
2. > 5 µM
3. 2 to 5 µM
4. < 2 µM
5. < 2 µM
6. > 5 µM

* * *

- targetOrTestSystem: M2 muscarinic receptor (Homo sapiens)
- Construct: expressed in transfected cells; host or cells: CHO (M2-CHO)
- protocol: Functional mobilization of intracellular calcium (FLIPR) in CHO cells expressing M2
- Format: cell-based
- conditionDescription: CHO; 100% = maximum response obtained with the Carbachol control; read-out: M2 Efficacy
Field: Emax. Provide a value for each of the compounds that follow.

Some compounds with known Emax results, for comparison:
>  <querySmiles>
Cc1cc(C(=O)N[C@@H]2CCC3(CCN(CCC(C)(C)C)CC3)c3cc(F)ccc32)nn1C

>  <assayResult>
25 to 100%

$$$$
>  <querySmiles>
CC(=O)N[C@H](C)C(=O)N[C@@H]1CCC2(CCN(CCC(C)(C)C)CC2)c2ccccc21

>  <assayResult>
< 25%

$$$$
>  <querySmiles>
CC(C)(C)CCN1CCC2(CC[C@@H](NC(=O)CCN3CCCC3=O)c3ccc(F)cc32)CC1

>  <assayResult>
25 to 100%

$$$$
>  <querySmiles>
Cc1cc(C(=O)N[C@H]2CCC3(CCN(CCC(C)(C)C)CC3)c3ccccc32)nn1C

>  <assayResult>
< 25%

$$$$
>  <querySmiles>
CC(C)(C)CCN1CCC2(CC[C@@H](NC(=O)CN3CCCCCC3=O)c3ccccc32)CC1

>  <assayResult>
< 25%

$$$$

Respectfully, I request Emax for each entry included below.
1. CCN(C(=O)c1cscn1)[C@H]1CCC2(CCN(CCC(C)(C)C)CC2)c2ccccc21
2. CCN(C(C)=O)[C@H]1CCC2(CCN(CCC(C)(C)C)CC2)c2cc(F)ccc21

Reply:
1. < 25%
2. < 25%

* * *

Field: Emax. Provide a value for each of the compounds that follow.
- targetOrTestSystem: M1 muscarinic receptor (Homo sapiens)
- Construct: expressed in transfected cells; host or cells: CHO (M1-CHO)
- Sequence (P11229 whole entry): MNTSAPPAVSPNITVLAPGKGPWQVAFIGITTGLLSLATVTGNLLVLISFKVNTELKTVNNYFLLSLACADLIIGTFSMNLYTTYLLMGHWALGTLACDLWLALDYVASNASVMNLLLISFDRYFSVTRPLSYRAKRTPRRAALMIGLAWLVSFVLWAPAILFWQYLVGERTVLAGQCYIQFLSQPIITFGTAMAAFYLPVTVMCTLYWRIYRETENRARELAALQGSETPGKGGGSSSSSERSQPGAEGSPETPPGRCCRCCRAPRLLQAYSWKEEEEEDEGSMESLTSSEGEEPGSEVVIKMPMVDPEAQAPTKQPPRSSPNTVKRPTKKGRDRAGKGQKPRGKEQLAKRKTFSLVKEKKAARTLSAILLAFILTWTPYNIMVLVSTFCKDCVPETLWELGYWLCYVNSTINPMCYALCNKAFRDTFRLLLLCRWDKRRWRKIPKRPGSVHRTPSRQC
- protocol: Functional mobilization of intracellular calcium (FLIPR) in CHO cells expressing M1
- Type: cell-based
- conditionDescription: CHO; 100% efficacy = maximum response obtained with the Carbachol control

>  <compound>
COc1cc2c(cc1OC)C1(CCN(C(=O)OC(C)(C)C)CC1)CC2=O

>  <targetOrTestSystem>
M1 muscarinic receptor (Homo sapiens)

>  <Emax>
< 25%

$$$$

Respectfully, I request Emax for each entry included below.
1. CN(C)C(=O)N[C@H]1CC2(CCN(C(=O)OC(C)(C)C)CC2)c2ccccc21
2. CC(C)(C)CCN1CCC2(CC[C@@H](NC(=O)C3CCCO3)c3ccccc32)CC1 (stereo partly drawn)
3. CC(=O)N[C@H]1CCC2(CCN(C(=O)OC(C)(C)C)CC2)c2ccccc21
4. CC(=O)N[C@H]1CC2(CCN(CC(=O)O)CC2)c2ccccc21
5. CC(=O)N[C@@H]1CCC2(CCN(CCC(C)(C)C)CC2)c2cc(F)ccc21
6. CC(=O)NCC(=O)N[C@@H]1CCC2(CCN(CCC(C)(C)C)CC2)c2cc(F)ccc21
7. CCC(=O)N[C@H]1CC2(CCN(C(=O)OC(C)(C)C)CC2)c2ccccc21

Reply:
1: < 25%; 2: < 25%; 3: < 25%; 4: < 25%; 5: 25 to 100%; 6: 25 to 100%; 7: < 25%

Respectfully, I request Emax for each entry included below.
1. CC(=O)N[C@H]1CC2(CCN(CC(=O)N(CC#N)C(C)C)CC2)c2ccccc21
2. COC(=O)CCCCCN1CCC2(CC1)C[C@H](NC(C)=O)c1ccccc12

Reply:
1. < 25%
2. > 100%

Respectfully, I request Emax for each entry included below.
1. Cn1nccc1C(=O)N[C@H]1CCC2(CCN(CCC(C)(C)C)CC2)c2ccccc21
2. CC(C)(C)OC(=O)N1CCC2(CC1)C[C@H](NC(=O)N1CCCC1)c1ccccc12
3. CC(C)CCN1CCC2(CC1)C[C@H](NC(=O)C1CCCC1)c1ccccc12

Reply:
1. 25 to 100%
2. < 25%
3. < 25%

Respectfully, I request Emax for each entry included below.
1. CC(C)CCN1CCC2(CC[C@H](N(C)C(=O)N(C)C)c3ccccc32)CC1
2. CN1CCC2(CCCc3ccccc32)CC1
3. COCCC(=O)N[C@@H]1CCC2(CCN(CCC(C)(C)C)CC2)c2cc(F)ccc21
4. CC(C)CCN1CCC2(CC1)C[C@H](NC(=O)C1CC1)c1ccccc12
5. C#CCNC(=O)CN1CCC2(CC1)C[C@H](NC(C)=O)c1ccccc12

Reply:
1. < 25%
2. < 25%
3. 25 to 100%
4. 25 to 100%
5. < 25%

// provenance: patent US8003660B2
